- TEST SYSTEM: T1, CD27 expressed on the cell surface (HT1080_CD27 cells) (human, UniProt P26842 20-260); also: test concentration or dose not given here
- T1 sequence (looked up): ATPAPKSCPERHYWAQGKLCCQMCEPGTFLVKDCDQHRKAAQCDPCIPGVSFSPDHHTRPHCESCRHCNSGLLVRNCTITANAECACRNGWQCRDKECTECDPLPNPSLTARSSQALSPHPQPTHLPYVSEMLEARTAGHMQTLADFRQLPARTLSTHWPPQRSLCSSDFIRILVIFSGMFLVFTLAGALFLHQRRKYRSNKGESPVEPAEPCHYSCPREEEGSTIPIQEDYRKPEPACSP
- RUN DESCRIPTION: cell-based or functional assay
Values of IL-8, cross-linked by F(ab')2 fragment [abs. corr.] strictly less than 2 abs. corr. map to T, and values of at least 2 abs. corr. map to F.

>  <BINDER>
P018.S.07.A.B04 (antibody, V domains shown, V regions on human Ig constant parts; also called AB27_116) VH: QSVEESGGRLVTPGTPLTLTCTVSGFSLSSYDMIWVRQAPGKGLEWIGIIYLTDTTYYANWTKGRFTISKTSTTVDLKISSPTTEDTATYFCARHLDTSSGGFYFNLWGQGTLVTVSS VL: AQVLTQTPSSVSAAVGGTVTINCQASQSVYNSKILAWYQQKPGRPPKLLIYDASTLASGVPSRFKGSGSGTQFTLTISGVQSDDAATYFCQGEFTCTSADCIAFGGGTEVVVK

>  <GROUP>
T

$$$$
>  <BINDER>
P018.S.07.A.G04 (antibody, V domains shown, V regions on human Ig constant parts; also called AB27_130) VH: QSLEESGGRLVTPGTPLTLTCTVSGIDLSSYAMGWVRQAPGKGLEYIAIIYTTNRTHYATWAKGRFTISKSSTTVDLKATSLTTEDTATYFCGRYGRGSGGYYYGMDLWGPGTLVTVSS VL: DIVMTQTPASVEAAVGGTVTIKCQASQSGDNYCSWYQQKPGQPPKLLIYQASKLTSGVPSRFRGSRSGTEYTLTISDLESADAATYYCQNYCAGSGVCLGIAFGGGTEVVVK

>  <GROUP>
T

$$$$
>  <BINDER>
P018.S.10.A.C06 (antibody, V domains shown, V regions on human Ig constant parts; also called AB27_174) VH: QSLEESGGRLVTPGTPLTLTCTVSGIDLNNNAMTWVRQAPGEGLEWIGIISTADTTTYASWTKGRFTISKTSTTVDLKITSPTTEDTATYFCARAAYFSYGYFNLWGQGTLVTVSS VL: DIVMTQTPASVEAAVGGTVTIKCQASQNIGNALAWYQQKPGQPPKLLIYGASTLASGVPSRFKGSGSGTEFTLTISDLESADATTYFCQSYVYSDGNVFGGGTEVVVK

>  <GROUP>
T

$$$$
>  <BINDER>
P018.S.02.A.A01 (antibody, V domains shown, V regions on human Ig constant parts; also called AB27_27) VH: QSVEESGGRLVTPGTPLTLTCTVSGIDLSRYAMGWVRQAPGKGLEYIGIISSSGSTYYASWIKGRFTISKTSTTVDLKITSPTTEDTATYFCARSPYASTSASAFNLWGPGTLVTVSS VL: AFELTQTPSSVEAAVGGTVTIKCQASQSISSWLSWYQQKPGQPPKLLIYEASKLASGVPSRFKGSGSGTQFTLTISDLESADAATYYCQSYSSTTTNTFGGGTEVVVK

>  <GROUP>
T

$$$$
>  <BINDER>
P018.S.02.A.A06 (antibody, V domains shown, V regions on human Ig constant parts; also called AB27_28) VH: QSVEESGGRLVKPDESLTLTCTVSGIDLSTYAMGWVRQAPGKGLEYIGMISTGGSAYYASWAQGRFTISRTSTTVDLKMTSLTTEDTATYFCARLRDPYSYRTYFNLWGPGTLVTVSS VL: ALVMTQTPSSVEAAVGGTVTIKCQASLSISSALAWYQQKPGQRPKLLIYDASNLESGVPSRFKGSGSGAHFTLTVSDLESADAATYYCQGPYDTVNNNSFGGGTEVVVK

>  <GROUP>
T

$$$$
>  <BINDER>
P018.S.01.A.E04 (antibody, V domains shown, V regions on human Ig constant parts; also called AB27_16) VH: QEQLKESGGGLVTPGGTLTLTCTASGSDISNYGVSWVRQAPGKGLEWIGFINADGGGTWYASWVKGRFTISRTSTTVELKMTSLTTEHTATYFCATYGGGGGHNLWGPGTLVTVSS VL: AQVLTQTPSSVSAAVGGTVTINCQSSQSVYDNNALAWYQQKPGQPPKLLLYSASRLASGVPSRFKGSGSGTQFTLTISDLESDDAATYYCAAYYGSGDIFAFGGGTEVVVE

>  <GROUP>
T

$$$$
>  <BINDER>
P018.S.05.A.F02 (antibody, V domains shown, V regions on human Ig constant parts; also called AB27_91) VH: QSVEESGGRLVTPGTPLTLTCTVSGFSLNNYGITWVRQAPGKGLEYIGYINYGGIAYYASWVNGRFTISKTSTTVDLKMTSLTAADTATYFCARGYGYYSAGNLWGQGTLVTVSS VL: AQVLTQTPSPVSAAVGGTVTINCQASQSVYDNNYLSWYQQKPGQPPKRLIYDASSLASGVPSRFSGSGSGTQFTLTISGVQSDDAATYYCAGEYSCLSDDCIAFGGGTEVVVK

>  <GROUP>
T

$$$$
>  <BINDER>
P018.S.03.A.H05 (antibody, V domains shown, V regions on human Ig constant parts; also called AB27_63) VH: QSLEESGGDLVKPGASLTLTCTASGFSFSDRHYMCWVRQAPGKGLEWIGSIYTGKDSIDYASWAKGRFTISKTSSTTVTLQMTSLTAADTATYFCARDLLYGSSSGYLHTWGPGTLVTVSS VL: DIVMTQTPSSVSEPVGGTVTIKCQASHNIYSNLAWYQQKLGQPPKLLIYYASTLASGVPSRFKGSGSGTEYTLTISDLESDDAATYYCQSAYYGSIDITFGGGTEVVAQ

>  <GROUP>
T

$$$$
>  <BINDER>
P018.S.10.A.H01 (antibody, V domains shown, V regions on human Ig constant parts; also called AB27_184) VH: QEQLEESGGDLVKPGASLTLTCTASGFSFSSDYDMCWVSQAPGKGLEWIACIIGGSSDSTWYASWAKGRFTISKTSSTTVTLQVTGLTAADTATYFCARNVGFSYYDLWGPGTLVTVSS VL: AQVLTQTPSPVSAAVGGTVTINCQASQSLYNNKNLAWYQQKPGQPPKLLIYYASTLASGVSSRFKGSGSGTQFTLTISGVQSDDAATYYCQGEFSCSSGDCFAFGGGTEVVVK

>  <GROUP>
F

$$$$
>  <BINDER>
P018.S.04.A.F04 (antibody, V domains shown, V regions on human Ig constant parts; also called AB27_77) VH: QSVEESGGRLVTPGTPLTLTCTVSGFSLSNYAMSWVRQAPGKGLEWIGIIYASGTTYYARWAKGRFTISRTSTTVDLKISSPTTEDTATYFCAREYDSYDYAYGSSIYAFDPWGPGTLVTVSS VL: AYDMTQTPSSVSAAVGGTVTIKCQASESIYSNLAWYQQKPGQRPKLLIYRASTLASGVSSRFKGSGSGTQFTLSISGVESADAATYYCQQGYSSSNVDNVFGGGTEVVVK

>  <GROUP>
F

$$$$

These entries and their values trace back to patent US20210253725A1.
